Listed below: Ratio IC50/EC50 values for each entry.
# Tested on: Aorta
# Test: Ratio of IC50 for glucose-induced insulin secretion in Wistar rat pancreatic beta islets to EC50 for myorelaxant activity in Wistar rat aorta rings
# Type: functional

CC1(C)CC(NC(=S)Nc2cccc(Cl)c2)c2cc(Cl)ccc2O1 (centres undefined) ... <0.31
CC1(C)CC(NC(=S)Nc2ccc(Cl)cc2)c2cc(Br)ccc2O1 (centres undefined) ... <0.22
CC1(C)Oc2ccc(C#N)cc2C(N2CCCC2=O)C1O (racemic) ... >770
CC1=Nc2ccc(Cl)cc2S(=O)(=O)N1 [DIAZOXIDE] ... 1.01
CC1(C)CC(NC(=S)Nc2cccc(Cl)c2)c2cc(F)ccc2O1 (centres undefined) ... <0.32

Enquiry: State the recorded Ratio IC50/EC50 for this entry: `CC(C)NC1=NS(=O)(=O)c2cc(Cl)ccc2N1`
Return: 0.02

Enquiry: Check CC1(C)CC(NC(=S)Nc2cccc(Cl)c2)c2cc(Br)ccc2O1 (centres undefined) too.
Return: <0.25

Enquiry: Check CC1(C)CC(NC(=S)Nc2ccc(Cl)cc2)c2cc(Cl)ccc2O1 (centres undefined) too.
Return: <0.27

Enquiry: Check CC1(C)CC(NC(=S)Nc2ccc(Cl)cc2)c2cc(F)ccc2O1 (centres undefined) too.
Return: <0.23

###

Listed below: IC50 values for each entry.
# Test: Inhibition of glucose-induced insulin secretion in Wistar rat pancreatic beta islets assessed as residual insulin secretion relative to control
# Type: functional
Kindly provide the numeric value in nM only, without the unit symbol.

CC(C)NC1=NS(=O)(=O)c2cc(Cl)ccc2N1 ... 730

Turning now to a further record.
Enquiry: State the recorded IC50 for this entry: CC1(C)CC(NC(=S)Nc2ccc(Cl)cc2)c2cc(Cl)ccc2O1 (stereo not drawn)
Return: 2750

###

Listed below: IC50 values for each entry.
# Test: Inhibition of glucose-induced insulin secretion in Wistar rat pancreatic beta islets assessed as residual insulin secretion relative to control
# Assay type: functional
Kindly provide the numeric value in nM only, without the unit symbol.

Completed entries (count: 4):
CC1(C)CC(NC(=S)Nc2ccc(Cl)cc2)c2cc(F)ccc2O1 (stereo unspecified) ... 2300
CC1(C)CC(NC(=S)Nc2cccc(Cl)c2)c2cc(Br)ccc2O1 (stereo unspecified) ... 2590
CC1(C)CC(NC(=S)Nc2ccc(Cl)cc2)c2cc(Br)ccc2O1 (stereo unspecified) ... 2260
CC1(C)CC(NC(=S)Nc2cccc(Cl)c2)c2cc(Cl)ccc2O1 (stereo unspecified) ... 3120

Turning now to a further record.
Enquiry: State the recorded IC50 for this entry: CC1(C)CC(NC(=S)Nc2cccc(Cl)c2)c2cc(F)ccc2O1 (stereo unspecified)
Return: 3250
